Origin of measurements: the supplement of paper PMC9170038

# System: K4 kissing-loop RNA reporter;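 also: bound reporter read as fluorescence of individual clusters on recovered sequencing chips by microscopy, with normalized cluster intensities fitted with a binding model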
# Measurement Notes: apparent KD of K4 kissing-loop reporter; higher = weaker reporter binding
# Assay Context: Eterna round: R107; input ligand: tryptophan 2.4 mM
# apparent KD of K4 kissing-loop reporter annotations
# unit: nM | format: bare number

{"columns": ["Sequence Text", "Measured Target", "apparent KD of K4 kissing-loop reporter / nM"],
 "data": [
  ["GGUUUAUAGGAGGAUACCAGUACGAAUAAAGUACAUUAAUAGUAGAGUGAUGUUCUAAAGUACCCUUGGCAGCUUAGAGUAAGUU [#18 K4 Theophylline B Exclusion]", "K4 kissing-loop RNA reporter", 80.5],
  ["UUGCGUCUCUGAGGAUAUCAGAACAGAGUGAUGUUCUGUCAACGCCCAGUGAUGUUGGAUGCGAUCUGAGAAGGCAGUGGGCGCG [Same State FMN B GF 10]", "K4 kissing-loop RNA reporter", 184],
  ["GUAUGUGGAAACACGUACUUGUAUCCUAGGAAGGAUAUGCGGAAACGCAGAAGGUCCACCGGCGAGUUUAUCCAGUGAUGUUGGA [Ex FMN A 10]", "K4 kissing-loop RNA reporter", 248],
  ["GCAAGGCUACAAGGAUAUGCGCGAACCUACCGCCAAGCGGCUACCGGUGAGUCAGUGAUGUUGGCUGCAGAAGGUGUGAUUGAGC [theeternabot_sameState_KL_FMN_B_45]", "K4 kissing-loop RNA reporter", 334]
]}

What value of measured apparent KD of K4 kissing-loop reporter is listed for GGUGACGGCCAGGAGUGAUGUAUAGAAUAGCGAGGACCGGUACGGCCGCCACUCGUGAAGAAAAGGGAGUGAUGUUCCGUAAUGG [Kazoo B] ?
302

Now give it for AAGCAGUCACUCGAACCCAUCGAAGAUGGGCGAGGACCGGUACGGCCGCCACUCGGAGUGAUGUUCCGAAGACUGCAAAAUAAAA too.
555
